This collection of values is drawn from PubChem BioAssay (NCI).

tested on: MALME-3M melanoma; assay: NCI tumour cell line growth inhibition, 48 h
Assign yes whenever TGI does not fall below 40 µM; assign no whenever it does.

See these solved cases before continuing.
O=C(Nc1cc(Cl)cc(Cl)c1)c1ccc(NC2=C(Cl)C(=O)N(Cc3ccccc3)C2=O)cc1 | no
Oc1ccc2c3c1OC1c4[nH]c5c(c4CC4(O)C(C2)N(CC2CC2)CC[C@]314)CC1(O)C2Cc3ccc(O)c4c3[C@@]1(CCN2CC1CC1)C5O4 (some centres not stated) | no
CC(=O)OCC1OC(OC2CC3C(C)(C)C(=O)CC[C@]3(C)C3CC[C@]45C[C@]4(CCC5[C@@H](C)CC(O)C(O)C(C)(C)O)[C@]23C)C(O)C(O)C1O (some centres not stated) | no

Exam item: Has `O=C1/C(=C/c2ccc(O)cc2)CCc2ccccc21` a recorded TGI greater than or equal to 40 µM?
Marked response: yes

Exam item: Does TGI meet or surpass 40 µM for COc1ccc(C2S/C(=C\c3cccc([N+](=O)[O-])c3)C(=O)N2NC(=O)Cc2ccccc2)cc1 (configuration not stated) ?
Marked response: yes

Exam item: Hi, just wondering whether `O=c1[nH]c(C2CCCCC2)nc2cc(Cl)ccc12` shows TGI of 40 µM or higher.
Marked response: yes

Exam item: Item Cc1ccc(C2CC(c3cccc(Nc4ccncc4)c3)=NN2c2ccc(Cl)cc2)cc1 (configuration not stated) with TGI of 40 µM or above?
Marked response: no

Exam item: Confirm if TGI reported for the compound `CCNCCNc1cc(C2CCCC2)c(C#N)c2nc3ccccc3n12` is 40 µM or above.
Marked response: no

* * *

# reported TGI; entries follow
tested on: MALME-3M melanoma; test: NCI tumour cell line growth inhibition, 48 h

CC1(C)CC[C@]2(C(=O)O)CC[C@]3(C)C(=CC[C@@H]4[C@@]5(C)CC[C@@H]6OC(C)(C)OC[C@@]6(C)[C@@H]5CC[C@]43C)[C@H]2C1 | 25.6 µM
CC(C)=CCC/C(C)=C/CC/C(C)=C/CC/C(C=O)=C/CC/C(C)=C\CC/C(C)=C/CC/C(C)=C/CC/C(C)=C/CC1=CC(=O)C=CC1=O | 66.3 µM
O=C(CCc1cc(-c2ccco2)n(-c2ccc([N+](=O)[O-])cc2[N+](=O)[O-])n1)Nc1ccccc1 | 94.2 µM
COc1cc(CNC(=O)CCCCCCCCCCSSCCCCCCCCCCC(=O)NCc2ccc(O)c(OC)c2)ccc1O | > 10 µM
CC(=O)OCC(OC(C)=O)C(OC(C)=O)C(OC(C)=O)C(/C=N\Nc1nc2ccccc2c(=O)[nH]1)OC(C)=O (centres undefined) | > 100 µM

Exam item: Give its TGI value. Item: `C(=N/Nc1ccccn1)/c1cccnc1`
Marked response: > 100 µM

Exam item: Suppose we examine the compound `CO/N=C/c1c(-c2ccc(Cl)cc2)c(/C=N/OC)n2c1sc1ccccc12` ; what TGI value has been reported?
Marked response: > 100 µM

Exam item: # input compound: `COC(=O)c1cc(/C=C2\Cc3cc4c(cc3C2=O)CCC4)cc2c1CCC2` ; wanted: its TGI
Marked response: > 100 µM

Exam item: Record request: TGI value, item O=C1CCC2(c3ccc(F)cc3)Nc3ncncc3N12 (centres undefined)
Marked response: > 10 µM
